# Tested on: Staphylococcus aureus MW2 delta-mecA (mecA-)
# method description: normalized GFP fluorescence (growth of mecA- strain) (fraction of control range); higher = more growth of mecA- strain
# test conditions: compound concentration: 150 uM; cefoxitin: subinhibitory; fluorescent label: GFP
Counter-ions that a name gives are not always drawn.
Catalogue of normalized GFP fluorescence values
Give the value as a plain number.

[[record]]
compound = "CC1=Nc2ccc(Cl)cc2S(=O)(=O)N1"
value = 0.259

[[record]]
compound = "OCCOCCN1CCN(C2=Nc3ccccc3Sc3ccccc32)CC1 [Quetiapine fumarate (Seroquel)]"
value = 0.0887


Would you mind telling me what normalized GFP fluorescence value was observed for `COc1cc2c(cc1Cc1cccc(Cl)c1F)c(=O)c(C(=O)O)cn2[C@H](CO)C(C)C` ?
0.0202

Find the recorded normalized GFP fluorescence belonging to `COc1cc(C(=O)NCc2ccc(OCCN(C)C)cc2)cc(OC)c1OC` and report it.
0.326

Need normalized GFP fluorescence of `O=C(O)c1ccccc1C(=O)Nc1ccc(S(=O)(=O)Nc2nccs2)cc1` , thanks.
0.538

Sample CS(=O)(=O)CCNCc1ccc(-c2ccc3ncnc(Nc4ccc(OCc5cccc(F)c5)c(Cl)c4)c3c2)o1 [Lapatinib Ditosylate (Tykerb)] — what was its normalized GFP fluorescence?
-0.0239

Looking for the measured normalized GFP fluorescence of CC(CN(C)C)CN1c2ccccc2CCc2ccccc21 (configuration not stated) , can you help?
0.0825

Form field: reported normalized GFP fluorescence of `CO[C@@]1(NC(=O)Cc2cccs2)C(=O)N2C(C(=O)O)=C(COC(N)=O)CS[C@@H]21`
0.00393

Suppose we examine the compound `N=C(N)NC(=O)c1nc(Cl)c(N)nc1N` ; what normalized GFP fluorescence value has been reported?
0.602

What value of measured normalized GFP fluorescence is listed for `O=C(O)c1cc(-c2ccc(F)cc2F)ccc1O` ?
0.0802

====

# System: Staphylococcus aureus MW2 (mecA+)
# method description: normalized DsRed fluorescence (growth of mecA+ strain) (fraction of control range); higher = more growth of mecA+ strain
# test conditions: compound concentration: 150 uM; cefoxitin: subinhibitory; fluorescent label: DsRed
measurement name: normalized DsRed fluorescence
Reply with just the number.

Sample records with normalized DsRed fluorescence:
[[record]]
compound = "CC(C)(C)NCC(O)COc1cccc2c1CCC(=O)N2 (stereo not given)"
subject_of_test = "Staphylococcus aureus MW2 (mecA+)"
value = 1.11

[[record]]
compound = "CC1(C)[C@@H](O[C@H]2O[C@H](C(=O)O)[C@@H](O)[C@H](O)[C@H]2O[C@@H]2O[C@H](C(=O)O)[C@@H](O)[C@H](O)[C@H]2O)CC[C@]2(C)[C@H]3C(=O)C=C4[C@@H]5C[C@@](C)(C(=O)O)CC[C@]5(C)CC[C@@]4(C)[C@]3(C)CC[C@@H]12 [Glycyrrhizic acid]"
subject_of_test = "Staphylococcus aureus MW2 (mecA+)"
value = 1.7


Form field: reported normalized DsRed fluorescence of `NC(=O)N1c2ccccc2C=Cc2ccccc21`
0.792

====

# System: Staphylococcus aureus MW2 delta-mecA (mecA-)
# method description: normalized GFP fluorescence (growth of mecA- strain) (fraction of control range); higher = more growth of mecA- strain
# test conditions: compound concentration: 150 uM; cefoxitin: subinhibitory; fluorescent label: GFP
Counter-ions that a name gives are not always drawn.
Ranges used to classify normalized GFP fluorescence: low group = under 0.002, middle group = from 0.002 up to 0.3, high group = 0.3 and over

Reference set (5 entries):
[[record]]
compound = "CC1=C(/C=C/C(C)=C/C=C/C(C)=C/C(=O)O)C(C)(C)CCC1"
class_assignment = "low group"

[[record]]
compound = "CCC1(C)OC(=O)N(C)C1=O (configuration not stated)"
class_assignment = "high group"

[[record]]
compound = "Cc1nccn1CC1CCc2c(c3ccccc3n2C)C1=O (configuration not stated)"
class_assignment = "high group"

[[record]]
compound = "CN(C)CCCN1c2ccccc2CCc2ccc(Cl)cc21"
class_assignment = "low group"

[[record]]
compound = "Cc1cc(C(C)(C)C)c(O)c(C)c1CC1=NCCN1 [Oxymetazoline hydrochloride]"
class_assignment = "middle group"


Input COCC1=C(C(=O)OC(C)OC(=O)OC(C)C)N2C(=O)[C@@H](NC(=O)/C(=N\OC)c3csc(N)n3)[C@H]2SC1 (some centres not stated) ; output its category
middle group

In plain terms, what class is COc1cc(C(=O)NS(=O)(=O)c2ccccc2C)ccc1Cc1cn(C)c2ccc(NC(=O)OC3CCCC3)cc12 [Zafirlukast (Accolate)] ?
low group

Input O=C1c2ccccc2C(=O)C1c1ccccc1 [Phenindione (Rectadione)] ; output its category
middle group

Into which category would you place `CCC(=O)NCC[C@@H]1CCc2ccc3c(c21)CCO3` ?
high group
